species: Homo sapiens; assay: Selectivity ratio of IC50 for human full-length recombinant HDAC1 expressed in baculovirus infected Sf9 insect cells to IC50 for human full-length recombinant HDAC6 expressed in baculovirus infected Sf9 insect cells
RECORDED METRIC: Ratio IC50

In [3]: df
Out[3]:
                    structure_smiles_string  recorded_metric  readout_value
0  O=C(NO)c1ccc(Cn2c(=O)n(CCc3ccccc3)c(=O)c3cc(F)ccc32)cc1       Ratio IC50            235
1  O=C(NO)c1ccc(Cn2c(=O)n(CCc3cccc(F)c3)c(=O)c3ccccc32)cc1       Ratio IC50           1320
2  O=C(NO)c1ccc(Cn2c(=O)n(CCc3ccccc3)c(=O)c3ccc(Cl)cc32)cc1       Ratio IC50            434
3  O=C(NO)c1ccc(Cn2c(=O)n(CCc3ccccc3)c(=O)c3ccccc32)s1       Ratio IC50           1150
4  O=C(NO)c1ccc(Cn2c(=O)n(CCc3ccccc3)c(=O)c3ccsc32)cc1       Ratio IC50            443
5  O=C(NO)c1ccc(Cn2c(=O)n(CCc3ccccc3)c(=O)c3cccnc32)cc1       Ratio IC50            384
6  O=C(NO)c1ccc(Cn2c(=O)n(CCc3ccccc3)c(=O)c3ccc(C(F)(F)F)cc32)cc1       Ratio IC50             13
7  O=C(NO)c1ccc(Cn2c(=O)n(CCc3ccccc3)c(=O)c3cc(Cl)ccc32)cc1       Ratio IC50            539
8  O=C(NO)c1ccc(Cn2c(=O)n(CCc3ccc(O)cc3)c(=O)c3ccccc32)cc1       Ratio IC50           1820
